Cited source for all entries: ChEMBL document CHEMBL1152193

- Test system: Cytosolic phospholipase A2 (Homo sapiens) (UniProt P47712)
- Sequence (P47712 whole entry): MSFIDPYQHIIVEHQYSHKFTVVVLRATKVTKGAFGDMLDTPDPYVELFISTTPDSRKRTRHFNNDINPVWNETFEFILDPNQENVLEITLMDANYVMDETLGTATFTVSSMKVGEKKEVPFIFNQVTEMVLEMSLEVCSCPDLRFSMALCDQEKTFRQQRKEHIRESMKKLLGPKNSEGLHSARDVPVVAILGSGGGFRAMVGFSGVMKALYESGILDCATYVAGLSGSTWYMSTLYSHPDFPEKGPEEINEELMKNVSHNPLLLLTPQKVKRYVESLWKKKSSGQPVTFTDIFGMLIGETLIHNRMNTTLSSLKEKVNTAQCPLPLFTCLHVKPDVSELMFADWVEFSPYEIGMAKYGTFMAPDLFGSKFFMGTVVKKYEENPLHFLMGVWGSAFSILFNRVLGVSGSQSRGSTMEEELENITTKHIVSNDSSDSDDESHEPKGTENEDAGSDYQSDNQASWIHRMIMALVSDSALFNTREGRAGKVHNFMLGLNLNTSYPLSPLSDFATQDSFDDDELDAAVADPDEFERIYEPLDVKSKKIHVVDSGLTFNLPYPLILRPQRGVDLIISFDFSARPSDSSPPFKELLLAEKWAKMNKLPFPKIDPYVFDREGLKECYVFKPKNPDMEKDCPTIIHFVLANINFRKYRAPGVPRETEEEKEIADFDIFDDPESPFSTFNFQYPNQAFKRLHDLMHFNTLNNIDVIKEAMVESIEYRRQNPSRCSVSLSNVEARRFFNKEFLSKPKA
- Assay comment: Inhibition of human group 4A cytosolic Ca2+-dependent phospholipase A2 at 0.091 mole fraction by modified Dole assay
Experimental endpoint: inhibition (%)
Field format: number, assumed %, no unit text.

Examples with answers:
>>> test_result("CC(C)(C)OC(=O)CCNC(=O)CCCCCCc1ccccc1")
36
>>> test_result("CCCCCCCCCCCCCCC(=O)C(=O)NCCCCC(=O)OCC")
31
>>> test_result("CCCCCCCCCCCCCCC(=O)C(=O)NCCCC(=O)CCCC")
32

Let's switch to this molecule now.
[in] Tell me the measured inhibition of C=CCOC(=O)CCCNC(=O)C(=O)CCCCCCCCCCCCCC , please.
[out] 53

----------
- Test system: Phospholipase A2 group V (Homo sapiens)
- Assay comment: Inhibition of human group 5 Ca2+-dependent secretory phospholipase A2 at 0.091 mole fraction by modified Dole assay
inhibition for assorted compounds
Field format: number, assumed %, no unit text.

Examples with answers:
>>> test_result("CCCCCCCCCCCCCCC(=O)C(=O)NCCCC(=O)OCc1ccccc1")
38
>>> test_result("CCCCCCCCCCCCCCC(=O)C(=O)NCC(=O)OC(C)(C)C")
82
>>> test_result("CCCCCCCCCCCCCCC(=O)C(=O)N[C@H](CCC(=O)OC)CC(C)C")
65
>>> test_result("COC(=O)CNC(=O)C(=O)CCCCCCc1ccccc1")
30
>>> test_result("CC(C)(C)OC(=O)CCNC(=O)C(=O)CCCCCCc1ccccc1")
69

[in] Tell me the measured inhibition of CCCCCCCCCCCCCCC(=O)C(=O)NCCCCC(=O)OC , please.
[out] 42

[in] For CCCCCCCCCCCCCCC(=O)C(=O)Nc1ccc(C(=O)OCC)cc1 then?
[out] 78

[in] For CC(C)(C)OC(=O)CCNC(=O)CCCCCCc1ccccc1 then?
[out] 66

[in] For CCCCCCCCCCCCCCC(=O)C(=O)NCCC(=O)OCC then?
[out] 59

[in] For CCCCCCCCCCCCCCC(=O)C(=O)NCCC(=O)OC then?
[out] 48

[in] For CCCC[C@H](CCC(=O)O)NC(=O)CCCCCCc1ccccc1 then?
[out] 95

----------
- Test system: 85/88 kDa calcium-independent phospholipase A2 (Homo sapiens)
- Sequence (whole entry): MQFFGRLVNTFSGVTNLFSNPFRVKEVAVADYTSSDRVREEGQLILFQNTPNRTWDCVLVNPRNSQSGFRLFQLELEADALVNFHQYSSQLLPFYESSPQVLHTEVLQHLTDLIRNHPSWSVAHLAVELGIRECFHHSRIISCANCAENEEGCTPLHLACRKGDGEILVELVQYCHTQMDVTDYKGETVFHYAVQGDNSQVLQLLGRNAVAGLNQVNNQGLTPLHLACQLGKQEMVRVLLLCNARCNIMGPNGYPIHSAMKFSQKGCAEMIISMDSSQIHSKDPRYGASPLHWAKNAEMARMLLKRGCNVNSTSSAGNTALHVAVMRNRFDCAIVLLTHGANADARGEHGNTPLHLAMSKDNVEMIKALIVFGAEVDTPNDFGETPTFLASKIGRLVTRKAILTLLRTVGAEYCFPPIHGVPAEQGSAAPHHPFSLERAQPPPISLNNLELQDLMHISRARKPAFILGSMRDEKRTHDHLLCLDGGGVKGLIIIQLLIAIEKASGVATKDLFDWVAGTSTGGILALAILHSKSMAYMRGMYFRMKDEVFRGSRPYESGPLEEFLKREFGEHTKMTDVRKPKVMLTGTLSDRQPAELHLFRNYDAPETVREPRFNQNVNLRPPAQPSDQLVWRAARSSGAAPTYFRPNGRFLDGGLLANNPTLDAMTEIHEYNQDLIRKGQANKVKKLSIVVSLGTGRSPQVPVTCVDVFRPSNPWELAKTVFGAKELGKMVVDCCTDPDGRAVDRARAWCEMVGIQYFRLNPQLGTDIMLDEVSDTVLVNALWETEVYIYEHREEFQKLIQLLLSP
- Assay comment: Inhibition of human group 6A cytosolic Ca(2+)-independent phospholipase A2 at 0.091 mole fraction by modified Dole assay
Experimental endpoint: inhibition (%)
Field format: number, assumed %, no unit text.

Examples with answers:
>>> test_result("C=CCOC(=O)CCCNC(=O)C(=O)CCCCCCCCCCCCCC")
63
>>> test_result("CCCCCCCCCCCCCCC(=O)C(=O)NCCCCC(=O)OC(C)(C)C")
62
>>> test_result("CCCCCCCCCCCCCCC(=O)C(=O)NCCCCC(=O)OCC")
35
>>> test_result("CCCCCCCCCCCCCCC(=O)C(=O)NCCC(=O)OCC")
51
>>> test_result("CCCCCCCCCCCCCCC(=O)C(=O)NCCC(=O)OC(C)(C)C")
54

[in] Tell me the measured inhibition of CC(C)(C)OC(=O)CCNC(=O)CCCCCCc1ccccc1 , please.
[out] 57

[in] For CC(C)(C)OC(=O)CCNC(=O)C(=O)CCCCCCc1ccccc1 then?
[out] 81

[in] For COC(=O)CNC(=O)C(=O)CCCCCCc1ccccc1 then?
[out] 31
